Value source: patent US20250346644A1

molecular target: T1, hIL2-DM-his (human, UniProt P60568 21-153); assay: BLI ForteBio, Ab on Protein A sensor
T1 construct: expressed in ExpiCHO-S cells, nickel-column purified; also called hIL-2 mutein containing two point mutations K64G and N90R (with a his-tag); not shown: his-tag
T1 sequence (P60568 21-153 K84G/N110R): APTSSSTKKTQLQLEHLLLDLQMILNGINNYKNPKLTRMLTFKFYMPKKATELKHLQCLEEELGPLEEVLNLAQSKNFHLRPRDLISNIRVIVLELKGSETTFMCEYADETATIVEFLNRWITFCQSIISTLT
Lab note: compare kon against 400000 M⁻¹ s⁻¹. Equal or greater, write fulfilled. Smaller, write not fulfilled.

{"columns": ["BINDER", "ASSIGNED_CLASS"],
 "data": [
  ["K3G1 (antibody, V domains shown) VH: QVQLVQSGAEVKKPGATVKISCKVSGDTITAYYMHWVRQAPGQGLEWIGRIDPEDDSTKYAENFKGRVTITADTSTDTAYMELSSLRSEDTAVYYCTTVTFYYSRELRWFAYWGQGTLVTVSS VL: DIVLTQSPATLSLSPGERATLSCQASQYIGNYLSWYQQKPGQAPRLLIYQATSLASGIPARFSGSRSGTDFTLTISSLEPEDFAVYYCLQHYSTPYTFGQGTKLEIK", "fulfilled"],
  ["K2G4 (antibody, V domains shown) VH: QVQLVQSGAEVKKPGATVKISCKVSGDTITAYYMHWVRQAPGQGLEWIGRIDPEDDSTKYAENFKGRVTITADTSTDTAYMELSSLRSEDTAVYYCTTVTFLYSRELRWFAYWGQGTLVTVSS VL: DIVLTQSPATLSLSPGERATLSCQASQYISNYLSWYQQKPGQAPRLLIYSATSLASGIPARFSGSRSGTDFTLTISSLEPEDFAVYYCLQHYSTPYTFGQGTKLEIK", "fulfilled"],
  ["K4G2 (antibody, V domains shown) VH: QVQLVQSGAEVKKPGATVKISCKVSGDTITAYYMHWVRQAPGQGLEWIGRIDPEDDSTKYAENFKGRVTITADTSTDTAYMELSSLRSEDTAVYYCTTITFYYSRELRWFAYWGQGTLVTVSS VL: DIVLTQSPATLSLSPGERATLSCQASQYIGNYLSWYQQKPGQAPRLLIYSATSLASGIPARFSGSRSGTDFTLTISSLEPEDFAVYYCLQHYSTPYTFGQGTKLEIK", "not fulfilled"],
  ["K2G7 (antibody, V domains shown) VH: QVQLVQSGAEVKKPGATVKISCKVSGDTITAYYMHWVRQAPGQGLEWIGRIDPEDDSTKYAENFKGRVTITADTSTDTAYMELSSLRSEDTAVYYCTTITFYYTRELRWFAYWGQGTLVTVSS VL: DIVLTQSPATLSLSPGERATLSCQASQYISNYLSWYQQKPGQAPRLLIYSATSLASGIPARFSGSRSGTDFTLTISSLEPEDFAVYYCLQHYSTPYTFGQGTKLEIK", "not fulfilled"]
]}

Attention now shifts to the item below.
In plain terms: is recorded kon at least 400000 M⁻¹ s⁻¹ for K4G4 (antibody, V domains shown) VH: QVQLVQSGAEVKKPGATVKISCKVSGDTITAYYMHWVRQAPGQGLEWIGRIDPEDDSTKYAENFKGRVTITADTSTDTAYMELSSLRSEDTAVYYCTTVTFLYSRELRWFAYWGQGTLVTVSS VL: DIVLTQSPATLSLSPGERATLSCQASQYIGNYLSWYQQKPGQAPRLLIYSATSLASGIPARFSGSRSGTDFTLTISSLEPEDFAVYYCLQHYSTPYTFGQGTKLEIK ?
not fulfilled
